Data origin: paper PMC10247784

tested system: human TAS2R14 (Homo sapiens, UniProt Q9NYV8)
Construct: expressed in transfected cells; host or cells: HEK293T-Gα16gust44
Sequence (Q9NYV8 whole entry): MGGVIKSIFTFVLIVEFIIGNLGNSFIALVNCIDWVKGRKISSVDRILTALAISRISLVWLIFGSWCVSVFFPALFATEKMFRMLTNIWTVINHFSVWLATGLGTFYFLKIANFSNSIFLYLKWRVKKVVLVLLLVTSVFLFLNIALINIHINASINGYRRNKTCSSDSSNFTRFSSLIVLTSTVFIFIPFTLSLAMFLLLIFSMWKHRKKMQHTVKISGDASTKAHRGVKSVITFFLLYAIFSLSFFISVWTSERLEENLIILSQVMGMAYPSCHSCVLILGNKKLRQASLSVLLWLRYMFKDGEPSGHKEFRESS
assay remarks: Calcium imaging assay (FLIPR), HEK293T-Gα16gust44 cells transfected with human TAS2R14
Assay type: cell-based
experimental parameters: TAS2R14 trace; Time (s) 124.797 (Chenodeoxycholic Acid 124.781)
// returns condition not met unless RLU is strictly below 900 RLU, in which case condition met

Worked cases, answers included:
Consider the molecule C[C@H](CCC(=O)NCCS(=O)(=O)O)[C@H]1CC[C@H]2[C@@H]3[C@H](O)C[C@@H]4C[C@H](O)CC[C@]4(C)[C@H]3C[C@H](O)[C@]12C [Taurocholic Acid, taurocholic acid] . Is its RLU strictly less than 900 RLU?
condition not met

Consider the molecule C[C@H](CCC(=O)NCC(=O)O)[C@H]1CC[C@H]2[C@@H]3[C@H](O)C[C@@H]4C[C@H](O)CC[C@]4(C)[C@H]3C[C@H](O)[C@]12C [Glycocholic Acid, glycocholic acid] . Is its RLU strictly less than 900 RLU?
condition not met

Consider the molecule C[C@H](CCC(=O)O)[C@H]1CC[C@H]2[C@@H]3[C@H](O)C[C@@H]4C[C@H](O)CC[C@]4(C)[C@H]3CC[C@]12C [Chenodeoxycholic Acid, chenodeoxycholic acid] . Is its RLU strictly less than 900 RLU?
condition met

Consider the molecule C[C@H](CCC(=O)O)[C@H]1CC[C@H]2[C@@H]3[C@H](O)C[C@@H]4C[C@H](O)CC[C@]4(C)[C@H]3C[C@H](O)[C@]12C [Cholic Acid, cholic acid] . Is its RLU strictly less than 900 RLU?
condition not met

Please turn your attention to the following entry.
Consider the molecule C[C@H](CCC(=O)NCCS(=O)(=O)O)[C@H]1CC[C@H]2[C@@H]3CC[C@@H]4C[C@H](O)CC[C@]4(C)[C@H]3CC[C@]12C [Taurolithocholic Acid, taurolithocholic acid] . Is its RLU strictly less than 900 RLU?
condition met

====

tested system: mouse Tas2r105 (Mus musculus, UniProt Q9JKT4)
Construct: expressed in transfected cells; host or cells: HEK293T-Gα16gust44
Sequence (Q9JKT4 1-300): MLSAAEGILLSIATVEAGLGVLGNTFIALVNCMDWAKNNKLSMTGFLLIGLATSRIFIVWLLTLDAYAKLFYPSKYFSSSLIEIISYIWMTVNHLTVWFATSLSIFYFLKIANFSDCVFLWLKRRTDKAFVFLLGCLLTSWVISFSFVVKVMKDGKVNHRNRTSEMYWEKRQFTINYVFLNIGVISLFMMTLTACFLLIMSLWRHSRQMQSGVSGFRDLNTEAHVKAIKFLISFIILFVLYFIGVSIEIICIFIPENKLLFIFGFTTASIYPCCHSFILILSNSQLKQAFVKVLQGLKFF
assay remarks: Calcium imaging assay (FLIPR), HEK293T-Gα16gust44 cells transfected with mouse Tas2r105
Assay type: cell-based
experimental parameters: Time 54.781 s
result type: RLU (RLU)
Express it in RLU; write the number only.

Request the reported RLU associated with `C[C@H](CCC(=O)O)[C@H]1CC[C@H]2[C@@H]3[C@H](O)C[C@@H]4C[C@H](O)CC[C@]4(C)[C@H]3C[C@H](O)[C@]12C`
257.63

Request the reported RLU associated with `C[C@H](CCC(=O)O)[C@H]1CC[C@H]2[C@@H]3CC[C@@H]4C[C@H](O)CC[C@]4(C)[C@H]3CC[C@]12C`
82.9174

Request the reported RLU associated with `C[C@H](CCC(=O)NCC(=O)O)[C@H]1CC[C@H]2[C@@H]3[C@H](O)C[C@@H]4C[C@H](O)CC[C@]4(C)[C@H]3C[C@H](O)[C@]12C`
314.942

Now examine the next entry.
Request the reported RLU associated with `C[C@H](CCC(=O)O)[C@H]1CC[C@H]2[C@@H]3CC[C@@H]4C[C@H](O)CC[C@]4(C)[C@H]3C[C@H](O)[C@]12C`
19.4961
